Assay: yeast display, Sf9 membrane polyspecificity reagent, FACS + sequencing; frameworks hold sequencing errors

| biosequence | polyreactivity (PSR sort gate) |
| --- | --- |
| QVQLVESGGGLVQAGGSLRLSCAASGSTFERNTMGWYRQAPGKERELVASISRGDGTYADSVKGRFTISRDNAKNTVYLQMNSLKPEDTAVYYCAAVQRESGSDYDYWGQGTQVTVSS | low polyreactivity |
| QVQLVDSGGGLVQAGGSLRLSCAASGSIFDSYVKGWYRQAPGKERELVAAITYSGGSTYADSVKGRFTISRDNAKNTVYLQMNSLKPEDTAVYYCAAASYFYMFLLEDYWGQGTHVTVSS | low polyreactivity |
| QVQLVESGGGLVQAGGSLRLSCAASGRTFGYYTMGWYRQAPGKEWELVATITRGGTTKYADSVKGRFTISRDNAKNTVYLQMNSLKPEDTAVYYCNARERGSRQYTFDYWGQGTQVTVSS | high polyreactivity |
| QVQLVESGGGLVQAGGSLRLSCAASGFIFSNYAMGWYRQEPGKERELVAAISWSGTLTNYADSVKGRFTISRDNAKNTVYLQMNSLKPEDTAVYYCAAYGDYLYDYWGQGTQVTVSS | low polyreactivity |
| QVQLVESGGGLVQAGGSLRLSCAASGYIFSYYAMGWYRQAPGKEREFVAAIRWRGGSTYYADSVKGRFTISRDNAKKTVYLQMNSLKPEDTAVYYCAAGPGTSYYWGQGTQVTVSS | high polyreactivity |
| QVQLVESGGGLVQAGGSLRLSCAASGSTFLTYAMGWYRQAPGKERELVAAIRWSGGSTYYADSVKGRFTISRDNAKNTVYLQMNSLKPEDTAVYYCAARSPRASGNSDYWGQGTQVTVSS | high polyreactivity |
| QDQLVESGGGLVQAGGSLRLSCAASGIIFAKYAMGWSRQAPGNERELVAAINARGGSTYYADSVKGRFTISRDNAMNTVYLQMNSLKPEDTAVYYCAAERRSRFGNGVTYDYWGQGTQVTVSS | high polyreactivity |
| QVQLVESGGGLVQAGGSLRLSCAASATFYYYAMGWSRQAPGKERELVAAISYSGGRTYYADSVKGRFTISRDNAKNTVYLQMNSLKPEDTAVYYCNALYRKTPSYGADDYWGQGTQVTVSS | high polyreactivity |
| QVQLVESGGGLVQEGGSLRLSCAASGRTFVSNAMGWYRQAPGKERELVAAIRYGGGRTYYADSVKGRFTISRDNAKNTVYLQMNSLKPEVTAVFYCAKRSVGGTGYYWGQGTQVTVSS | high polyreactivity |
| QVQLVESGGGLVQAGGSLRLSCAASGSIFRWNAMGWYIQAPGKERELVAAIDSGGSTYADSVKGRFTISRDNAKNTVYLQMNSLKPDDTAVYYCAAEIPDEWPYDYWGQGTQVTVSS | low polyreactivity |
| QVQLVESGGGLVQAEGRLRLSCAASGRIFPHYAMGWYRQAPGKERELVAAISRSGVSTYYADSVKGRFTISRDIAKNTVYLQMNSLKPEDTAVYYCASRSYILGWRYDYWGQGTQVTVSS | high polyreactivity |
| QVQLVESGGGLVQAGGSLRLSCAASRRTFNGNAMGWYRQAPGKETELVATITSSAGTTYYADSVKGRFTISRDNAKNTVYLQMNSLKPEDTAVYYCAKRIWRSYPYRPYYSEFGYWGQGTQVTVSS | high polyreactivity |
| QVQLVESGGGLVQAGGSLRLSCAASGSTLSSNAMGWYRQAPGKVWELVAAISYRGGSTYYADSVKGRFTISRDNAKNTVYLQMNSLKPEDTAVYYCAAYLGPYVRYYYWGQGTQVTVSS | high polyreactivity |
| QVQLEESGGGLVQAGGSLRLSCAASGRTFYHYAMGWYRQAPGKERELVAGITDGTITTDADSVKGRFTISRDNAKNTVYLQMNSLKPEDTAVYYCNVGYSDWWRSWAMDYWGQGTQVTVSS | high polyreactivity |
| QVQLVESGGGLVQAGGSLRLSCAASGRIFLSYAMGWYRQAPGKERELVAGITWNGGSTYYADSVKGRFTISRDNAKNTVYLQMNSLKPEDTAVYYCAATRFSYVFPYRYDYWGQGTQVTVSS | low polyreactivity |
| QVQLVESGGGLVQAGGSLRLSCAASGSTFRSYAMGGYIQAPGKERELVAAISGRGGSTYYADSVKGRFTISRDNAKNPVYLQMNSLKPEDTAVYYCNAVPGVSYWGQGLDYWGQGTQVTVSS | low polyreactivity |
| QVQLVESGGGLVQAGGSLRLSCAASGRIFKGYAMGWYRQAPGKERELVASISKRGVSTYYADSVKGRFTISRDNAKNTVYLQMNSLKPEDTAVYYCNARAPGYYYTRYDYWGQGTQVTVSS | high polyreactivity |
| QVQLVESGGGLVQAGGSLRLSCAASGSIYYAMGWYRQAPGKEREFVAAINSGGSTYYADSVKGRFTISRDNAKNTVYLQMNSLKPEDTAVYYCAADVWTPYLMSLKYGYDYWGQGTQVTVSS | low polyreactivity |
| QVQLVESGGGLVQAGGSLRLSCAASGITFGWYAMGWYRQAPGKERELVAAITWDGGSTYYADSVKGRFTFSRDNAKNTVYLQMNSLKPEDTAVYYCAAEYIYYYYLVARDYWGQGTQVTVSS | high polyreactivity |
| QVQLVESGGGLVQAGGSLRLSCAASGFTFYWYTMGWNRQAPGKERELVAAISRRGGSTSYADSVKGRFTISRDNAKNTVYLQMNSLKPEDTAVYYCAKTPGWTDYDYWGQGTQVTVSS | high polyreactivity |
| QVQLEESGGGLVQAGGSLRLICAASGIIFRLNAMGWYRQATGQDRELVAAIRRRGGSTYYADSVKGRFTISRDNAKNTVYLQMNSLKPEDTAVYYCNARYLRMRYPYTDEYNYWGQGTQVTVSS | low polyreactivity |
